Numbers sourced from patent US20230014722A1.

molecular target: T1, hPD-1.His (human, UniProt Q15116 25-170); experiment: SPR (ProteOn XPR36), antibody captured on Protein A, PD-1.His as analyte, 1:1 fit
T1 construct: the SPR text says only human PD-1; also called human PD-1 (SPR analyte)
T1 sequence (Q15116 25-170): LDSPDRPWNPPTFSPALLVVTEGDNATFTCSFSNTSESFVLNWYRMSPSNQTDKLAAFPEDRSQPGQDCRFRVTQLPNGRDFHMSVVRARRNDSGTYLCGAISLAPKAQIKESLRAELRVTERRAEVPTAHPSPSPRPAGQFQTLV
Overview of reported koff across a group of binders:
Numbers only; they are read as s⁻¹.

Exam item: Let me know recorded koff for 2G4 (antibody, human IgG4, V domains shown) VH: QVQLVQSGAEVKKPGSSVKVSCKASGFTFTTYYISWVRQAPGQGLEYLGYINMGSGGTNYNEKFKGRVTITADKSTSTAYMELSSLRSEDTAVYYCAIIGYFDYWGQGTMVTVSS VL: DVVMTQSPLSLPVTLGQPASISCRSSQSLLDSDGSTYLYWFQQRPGQSPRRLIYLVSTLGSGVPDRFSGSGSGTDFTLKISRVEAEDVGVYYCMQLTHWPYTFGQGTKLEIK , thanks.
Marked response: 0.0047

Exam item: Let me know recorded koff for 2E5 (antibody, human IgG4, V domains shown) VH: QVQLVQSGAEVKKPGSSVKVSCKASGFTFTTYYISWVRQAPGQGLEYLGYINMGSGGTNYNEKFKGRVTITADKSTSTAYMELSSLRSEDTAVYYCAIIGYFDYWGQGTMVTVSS VL: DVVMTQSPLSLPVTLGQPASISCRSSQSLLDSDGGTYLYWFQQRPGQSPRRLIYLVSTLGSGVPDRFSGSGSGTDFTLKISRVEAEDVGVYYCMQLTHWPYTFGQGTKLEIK , thanks.
Marked response: 0.00366

Exam item: Let me know recorded koff for 1H6 (antibody, human IgG4, V domains shown) VH: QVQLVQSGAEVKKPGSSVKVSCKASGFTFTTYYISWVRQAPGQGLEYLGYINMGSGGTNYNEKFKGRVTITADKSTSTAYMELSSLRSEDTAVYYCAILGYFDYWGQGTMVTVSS VL: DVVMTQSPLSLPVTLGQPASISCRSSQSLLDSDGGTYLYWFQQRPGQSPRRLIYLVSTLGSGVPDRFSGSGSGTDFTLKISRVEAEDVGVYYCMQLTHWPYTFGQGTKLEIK , thanks.
Marked response: 0.00918
